Each entry below carries its reported Ratio IC50.
organism: Homo sapiens; test: Ratio of IC50 for AchE to IC50 for BuChE

structure-notation	Ratio IC50
CCN(CCCCCCCOc1ccc2c(=O)c3ccccc3oc2c1)Cc1ccccc1OC	9.8
Cc1ccccc1CN(C)CCCCCCCOc1ccc2c(=O)c3ccccc3oc2c1	19.1
CN(CCCCCCCOc1ccc2c(=O)c3ccccc3oc2c1)Cc1ccccc1	3.52
CN(CCCCOc1ccc2c(=O)c3ccccc3oc2c1)Cc1ccccc1	2.36
CN(CCCCCCOc1ccc2c(=O)c3ccccc3oc2c1)Cc1ccccc1	2.02
CN(CCCCCCCCCCCCOc1ccc2c(=O)c3ccccc3oc2c1)Cc1ccccc1	6050
COc1ccc(CN(C)CCCCCCCOc2ccc3c(=O)c4ccccc4oc3c2)c(OC)c1OC	155
COc1cccc(CN(C)CCCCCCCOc2ccc3c(=O)c4ccccc4oc3c2)c1OC	68.7
COc1ccccc1CN(C)CCCOc1ccc2c(=O)c3ccccc3oc2c1	1.78
COc1ccc(OC)c(CN(C)CCCCCCCOc2ccc3c(=O)c4ccccc4oc3c2)c1	100
CN(CCCCCCCOc1ccc2c(=O)c3ccccc3oc2c1)Cc1cccc(Cl)c1	9.3
COc1ccc(CN(C)CCCCCCCOc2ccc3c(=O)c4ccccc4oc3c2)cc1	171
CN(CCCCCCCOc1ccc2c(=O)c3ccccc3oc2c1)Cc1ccccc1[N+](=O)[O-]	29.5
COc1ccccc1CN(C)CCCCCCCOc1ccc2c(=O)c3ccccc3oc2c1	2.34
CN(CCCCCCCOc1ccc2c(=O)c3ccccc3oc2c1)Cc1ccc(Cl)cc1	8.26
CN(CCCCCOc1ccc2c(=O)c3ccccc3oc2c1)Cc1ccccc1	3.12
